From: patent US12383571B2

System: tyrosinase
METHOD_DESCRIPTION: Determination of tyrosinase activity by spectrophotometry (L-dopa substrate, 475 nm)
Format: biochemical
SETUP_CONDITIONS: single phenolic acid at 5 mM, other conditions as Example 1 (1.0 mg/mL protodioscin, 150° C. 30 min)
MEASURED_PROPERTY: tyrosinase relative activity (%)

{"MOLECULE": "O=C(O)C=Cc1ccccc1 [cinnamic acid]", "MEASURED_VALUE": 102.32}
{"MOLECULE": "COc1cc(-c2oc3cc(O)cc(O)c3c(=O)c2O)ccc1O [isorhamnetin]", "MEASURED_VALUE": 82.52}
{"MOLECULE": "COc1cc(/C=C/C(=O)O)ccc1O [ferulic acid]", "MEASURED_VALUE": 107.56}
{"MOLECULE": "O=C(O)c1cc(O)c(O)c(O)c1 [gallic acid]", "MEASURED_VALUE": 97.25}
{"MOLECULE": "O=c1c(O)c(-c2ccc(O)c(O)c2)oc2cc(O)cc(O)c12 [quercetin]", "MEASURED_VALUE": 80.69}
